Assay: small-molecule microarray binders of probe aDKK1, primary screen, biochemical, biotinylated probe, 635/667 nm fluorescence (AID 1099);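 also: score merges 667nm spot fluorescence with signal to noise across triplicate slides; reference of the scale not given here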
Settings: higher = more signal
reported_endpoint: composite z-score

[[record]]
compound = "C=CCNC(=O)[C@@H]1[C@H]2C(=O)O[C@H](c3ccccc3)[C@H](c3ccccc3)N2[C@H](c2ccc(OCCO)cc2)[C@@]12C(=O)Nc1ccccc12"
measured_value = 0.454

[[record]]
compound = "CCOC(=O)[C@H]1C[C@H]2O[C@@]23C[C@H]1C(=O)N1CCCC1[C@@H]3O[Si](C)(C)C(C)(C)C (some centres undefined)"
measured_value = -0.199

[[record]]
compound = "COc1c(C)cc(-c2cc3c(c(-c4ccc(Oc5ccccc5)cc4)n2)[Si](C(C)C)(C(C)C)OC3)cc1C"
measured_value = 0.187

[[record]]
compound = "C=CC[C@]1(C(=O)N2CCOCC2)N=C(c2ccc(OCCCO)cc2)O[C@H]1c1ccccc1"
measured_value = 0.573

